# protocol-description: Clearance in mouse plasma
# Format: ADME, organism-based
Just a reminder that ties go to label 0: only clearance strictly below 5 mL/min/kg counts as label 1.

molecule="NC(Cc1nc(-c2ccc(F)cn2)no1)C(=O)NC1=C(C(=O)O)CCCC1 (stereo not given)" class_label="label 1"
molecule=O=C(CCc1nc(-c2ccc(O)cn2)no1)NC1=C(C(=O)O)CCCC1 class_label="label 1"
molecule="O=C(CCc1ccc(-c2ccc(O)cc2)cc1)NC1=C(C(=O)O)CC(c2cccnc2F)CC1 (stereo not given)" class_label="label 0"
molecule=O=C(CCc1ccc(-c2ccc(O)cc2)cc1)Nc1ccccc1C(=O)O class_label="label 0"
molecule=C[C@H]1CC(NC(=O)CCc2nc(-c3ccc(O)cn3)no2)=C(C(=O)O)C[C@H]1c1cccc(F)c1 class_label="label 0"

###

# protocol-description: Half life in mouse plasma
# Type: ADME, organism-based
// classify: if (half-life < 4 h) criterion met else criterion not met

compound=O=C(CCc1ccc(-c2ccc(O)cc2)cc1)Nc1ccccc1C(=O)O class_label="criterion met"
compound="NC(Cc1nc(-c2ccc(F)cn2)no1)C(=O)NC1=C(C(=O)O)CCCC1 (stereo not given)" class_label="criterion not met"
compound=O=C(CCc1nc(-c2ccc(O)cn2)no1)NC1=C(C(=O)O)CCCC1 class_label="criterion met"
compound="O=C(CCc1ccc(-c2ccc(O)cc2)cc1)NC1=C(C(=O)O)CC(c2cccnc2F)CC1 (stereo not given)" class_label="criterion met"

###

# target: Hydroxycarboxylic acid receptor 2 (Homo sapiens) (UniProt Q8TDS4)
# Sequence (Q8TDS4 whole entry): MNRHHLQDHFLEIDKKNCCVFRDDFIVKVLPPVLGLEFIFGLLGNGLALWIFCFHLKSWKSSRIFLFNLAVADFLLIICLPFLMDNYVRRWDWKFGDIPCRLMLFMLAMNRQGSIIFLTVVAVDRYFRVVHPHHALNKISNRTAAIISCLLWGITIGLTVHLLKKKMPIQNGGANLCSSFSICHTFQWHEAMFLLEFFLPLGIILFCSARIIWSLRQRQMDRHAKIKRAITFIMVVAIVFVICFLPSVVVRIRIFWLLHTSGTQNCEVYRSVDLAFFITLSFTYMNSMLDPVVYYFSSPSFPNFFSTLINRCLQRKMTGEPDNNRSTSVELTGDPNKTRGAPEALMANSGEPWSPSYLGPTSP
# protocol-description: Displacement of [3H]niacin from human niacin receptor expressed in CHO-KI cells in presence of human serum
# Type: cell-based
endpoint-name: fold change (FC)

compound="O=C(CCc1ccc2cc(O)ccc2c1)NC1=C(C(=O)O)CC(c2cccnc2F)CC1 (centres undefined)" target="Hydroxycarboxylic acid receptor 2 (Homo sapiens) (UniProt Q8TDS4)" experimental_value=100
compound=O=C(CCc1nc(-c2ccc(F)cn2)no1)NC1=C(C(=O)O)CCCC1 target="Hydroxycarboxylic acid receptor 2 (Homo sapiens) (UniProt Q8TDS4)" experimental_value="> 400"
compound="NC(Cc1nc(-c2ccc(F)cn2)no1)C(=O)NC1=C(C(=O)O)CC(c2cc(F)cc(F)c2)CC1 (centres undefined)" target="Hydroxycarboxylic acid receptor 2 (Homo sapiens) (UniProt Q8TDS4)" experimental_value=30
compound="Cn1nccc1C1CCC(NC(=O)CCc2ccc3cc(O)ccc3c2)=C(C(=O)O)C1 (centres undefined)" target="Hydroxycarboxylic acid receptor 2 (Homo sapiens) (UniProt Q8TDS4)" experimental_value=200
compound="O=C(CCc1ccc2cc(O)ccc2c1)NC1=C(C(=O)O)CC(c2cc(F)cc(F)c2)CC1 (centres undefined)" target="Hydroxycarboxylic acid receptor 2 (Homo sapiens) (UniProt Q8TDS4)" experimental_value="> 400"
compound="O=C(CCc1ccc2cc(O)ccc2c1)NC1=C(C(=O)O)CC(c2cccc(F)c2)CC1 (centres undefined)" target="Hydroxycarboxylic acid receptor 2 (Homo sapiens) (UniProt Q8TDS4)" experimental_value="> 400"
compound="NC(Cc1nc(-c2ccc(F)cn2)no1)C(=O)NC1=C(C(=O)O)CCCC1 (centres undefined)" target="Hydroxycarboxylic acid receptor 2 (Homo sapiens) (UniProt Q8TDS4)" experimental_value="> 400"
compound="O=C(CCc1ccc2cc(O)ccc2c1)NC1=C(C(=O)O)CC(c2ccccc2F)CC1 (centres undefined)" target="Hydroxycarboxylic acid receptor 2 (Homo sapiens) (UniProt Q8TDS4)" experimental_value="> 400"
compound="CCCC1CCC(NC(=O)CCc2ccc3cc(O)ccc3c2)=C(C(=O)O)C1 (centres undefined)" target="Hydroxycarboxylic acid receptor 2 (Homo sapiens) (UniProt Q8TDS4)" experimental_value="> 400"
